- target_system: Aurora A (Homo sapiens, UniProt O14965)
- Sequence (O14965 1-403): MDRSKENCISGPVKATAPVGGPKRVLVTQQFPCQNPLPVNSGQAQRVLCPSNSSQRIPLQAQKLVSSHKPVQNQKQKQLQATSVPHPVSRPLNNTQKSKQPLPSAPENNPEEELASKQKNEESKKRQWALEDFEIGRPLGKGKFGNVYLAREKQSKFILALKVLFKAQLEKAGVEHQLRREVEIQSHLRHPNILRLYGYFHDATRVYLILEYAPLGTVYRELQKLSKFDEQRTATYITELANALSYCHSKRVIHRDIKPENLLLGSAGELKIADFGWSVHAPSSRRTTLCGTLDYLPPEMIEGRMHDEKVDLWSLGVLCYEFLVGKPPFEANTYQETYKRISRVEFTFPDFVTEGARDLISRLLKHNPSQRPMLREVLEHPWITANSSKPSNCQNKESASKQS
metric: IC50
Kindly format the answer as number then unit.

Lookup result for COc1cccc2c1C(=O)c1nccc3cc4c(c-2c13)OCO4 ; measured IC50: 422 nM

----------
- Test system: HeLa
- experimental_details: SRB cell proliferation assay, HeLa
- Format: cell-based, human
- measurement_conditions: Table 2B; non-cancer MCF10A vs cancer HeLa
Values of Selectivity index (SI) MCF10A versus HeLa strictly less than 1 map to t, and values of at least 1 map to f.

COc1cccc2c1C[C@@H]1c3c(cc4c(c3-2)OCO4)CCN1C	f
COc1ccc2c(c1OC)-c1c3c(cc4c1C(C2)N(C)CC4)OCO3 (stereo not drawn)	t
CC(=O)O[C@H]1C(=O)[C@@]2(C)[C@H]([C@H](OC(=O)c3ccccc3)[C@]3(O)C[C@H](OC(=O)[C@H](O)[C@@H](NC(=O)c4ccccc4)c4ccccc4)C(C)=C1C3(C)C)[C@]1(OC(C)=O)CO[C@@H]1C[C@@H]2O [Paclitaxel, reference compound]	t

# check: Selectivity index (SI) MCF10A versus HeLa < 1 for COc1cccc2c1C(=O)c1c3c-2c2c(cc3cc[n+]1C)OCO2
f

# check: Selectivity index (SI) MCF10A versus HeLa < 1 for COc1cccc2c1C(=O)c1nccc3cc4c(c-2c13)OCO4
f

----------
Please respond with reported IC50 for every item in the list.
- Tested on: MCF7
- experimental_details: SRB cell proliferation assay, MCF7
- Assay type: cell-based, human
- measurement_conditions: Homo sapiens, MCF7, 72 h, read-out: IC50 (μM ± SD) MCF7
Give bare numbers, in µM.

COc1ccc2c(c1OC)CC1c3c(cc4c(c3-2)OCO4)CCN1C (stereo not drawn)	30.5

For the next question, use this molecule.
Lookup result for COc1cccc2c1C[C@@H]1c3c(cc4c(c3-2)OCO4)CCN1C ; measured IC50: 6.49
